Reference source for all entries: PubChem BioAssay AID190

Quick list: T/C per entry.
# System: AKR/Lw mice, AKR lymphoma ip, median survival T/C
# test_description: NCI In Vivo Anticancer Drug Screen. Data for tumor model Lymphoma AKR (Transplanted) (intraperitoneal) in AKR/Lw mice
# settings: endpoint: median survival time; dose: 200.0 mg/kg/injection; schedule: Q01DX001 (ip); vehicle: Klucel (hydroxypropylcellulose) (HPC); higher = longer survival
Inconclusive results and toxic doses are left out.

compound=O=c1cc(-c2ccccc2)nc(Nc2nc3ccc([N+](=O)[O-])cc3[nH]2)[nH]1 measured_metric=T/C result="110 % of control"
compound="ClC1=C(Cl)C2(Cl)C3COCC3C1(Cl)C2(Cl)Cl (stereo not given)" measured_metric=T/C result="93 % of control"
compound=CC(C)OC(=O)Oc1cccc2c1C(=O)c1ccccc1C2=O measured_metric=T/C result="91 % of control"
compound=O=[N+]([O-])c1ccc(OCc2ccc(S(=O)(=O)F)c(Cl)c2)c(Cl)c1 measured_metric=T/C result="97 % of control"
compound=CN(C)S(=O)(=O)Nc1cc(Cl)c(NS(=O)(=O)N(C)C)cc1Cl measured_metric=T/C result="106 % of control"

Exam item: Report T/C, nothing else, for this compound: `COc1ccccc1Oc1ccc(N=Cc2ccc(C)cc2)cc1`
Marked response: 100 % of control

Exam item: Report T/C, nothing else, for this compound: `S=c1[nH]nc(NC2CCCCC2)s1`
Marked response: 90 % of control

Exam item: Report T/C, nothing else, for this compound: `CCCn1c(=S)[nH]c2ccccc2c1=O`
Marked response: 94 % of control

Exam item: Report T/C, nothing else, for this compound: `CCCCCCCC(=O)NCCCC`
Marked response: 96 % of control

Exam item: Report T/C, nothing else, for this compound: `O=C1c2ccccc2-c2ncccc21`
Marked response: 120 % of control

----------
Quick list: T/C per entry.
# Tested on: AKR/Lw mice, AKR lymphoma ip, median survival T/C
# test_description: NCI In Vivo Anticancer Drug Screen. Data for tumor model Lymphoma AKR (Transplanted) (intraperitoneal) in AKR/Lw mice
# settings: endpoint: median survival time; dose: 100.0 mg/kg/injection; schedule: Q04DX003 (ip); vehicle: Klucel (hydroxypropylcellulose) (HPC); higher = longer survival
Inconclusive results and toxic doses are left out.

compound=COc1ccc2cc1Oc1ccc(cc1)C[C@H]1c3cc(c(OC)cc3CCN1C)Oc1c(OC)c(OC)cc3c1[C@H](C2)N(C)CC3 result="97 % of control"

Then this compound:
Exam item: Enter recorded T/C with AKR/Lw mice, AKR lymphoma ip, median survival T/C for `Cn1c(O)c(C=N)c(=O)[nH]c1=O` here.
Marked response: 104 % of control

----------
# Tested on: AKR/Lw mice, AKR lymphoma ip, median survival T/C
# test_description: NCI In Vivo Anticancer Drug Screen. Data for tumor model Lymphoma AKR (Transplanted) (intraperitoneal) in AKR/Lw mice
# settings: endpoint: median survival time; dose: 100.0 mg/kg/injection; schedule: Q01DX001 (ip); vehicle: saline; higher = longer survival
Inconclusive results and toxic doses are left out.
measured_metric: T/C

Here's what some known entries look like.
compound=COC(=O)Cc1ccc([N+](=O)[O-])cc1[N+](=O)[O-] result="94 % of control"
compound=COc1cc2ccc(CCNCc3ccccc3)cc2cc1OC result="116 % of control"
compound=COc1cc2c(cc1OC)[C@H]1CNC[C@H]1[C@@H](c1ccccc1)C2 result="105 % of control"
compound="NC(Cc1ccc([N+](=O)[O-])cc1)C(=O)O (stereo unspecified)" result="94 % of control"
compound="O=C1CC2CCCC(C1)S2=O (stereo unspecified)" result="113 % of control"

Exam item: Report T/C, nothing else, for this compound: `c1ccc(CC(Cc2ccccc2)=[N+]2CCCC2)cc1`
Marked response: 97 % of control

----------
# Test system: AKR/Lw mice, AKR lymphoma ip, median survival T/C
# test_description: NCI In Vivo Anticancer Drug Screen. Data for tumor model Lymphoma AKR (Transplanted) (intraperitoneal) in AKR/Lw mice
# settings: endpoint: median survival time; dose: 25.0 mg/kg/injection; schedule: Q01DX001 (ip); vehicle: saline; higher = longer survival
Inconclusive results and toxic doses are left out.
measured_metric: T/C

Here's what some known entries look like.
compound=CC1(C)CCN1Cc1ccccc1 result="100 % of control"
compound=Cc1c2ccncc2c(C)c2c1[nH]c1ccccc12 result="120 % of control"
compound=CS(=O)(=O)OCCCNCCCOS(C)(=O)=O result="110 % of control"
compound=COC(=O)c1ccc(NCC(C)(C)N)cc1 result="94 % of control"

Exam item: Report T/C, nothing else, for this compound: O=P1(NCCCl)OCCCN1CCCl (configuration not stated)
Marked response: 120 % of control

Exam item: Report T/C, nothing else, for this compound: `COc1ccccc1N1C(N)=NC(N)=NC1(C)C`
Marked response: 113 % of control

Exam item: Report T/C, nothing else, for this compound: `CN(C)C(C)(C)CNc1ccc(C(=O)O)cc1`
Marked response: 88 % of control

----------
# Tested on: AKR/Lw mice, AKR lymphoma ip, median survival T/C
# test_description: NCI In Vivo Anticancer Drug Screen. Data for tumor model Lymphoma AKR (Transplanted) (intraperitoneal) in AKR/Lw mice
# settings: endpoint: median survival time; dose: 15.0 micrograms/kg/injection; schedule: Q01DX009 (ip); vehicle: saline; higher = longer survival
Toxic doses and inconclusive results are not listed.
measured_metric: T/C

Here's what some known entries look like.
compound=CC[C@]1(O)C[C@H]2CN(CCc3c([nH]c4ccccc34)[C@@](C(=O)OC)(c3cc4c(cc3OC)N(C=O)[C@H]3[C@@](O)(C(=O)OC)[C@H](OC(C)=O)[C@]5(CC)C=CCN6CC[C@]43[C@@H]65)C2)C1 tested_target="AKR/Lw mice, AKR lymphoma ip, median survival T/C" result="122 % of control"
compound="Nc1ncn(C2OC(CO)C(O)C2O)c(=O)n1 (centres undefined)" tested_target="AKR/Lw mice, AKR lymphoma ip, median survival T/C" result="113 % of control"
compound="NC(=O)c1[nH]nc(C2OC(CO)C(O)C2O)c1O (centres undefined)" tested_target="AKR/Lw mice, AKR lymphoma ip, median survival T/C" result="121 % of control"

Exam item: Report T/C, nothing else, for this compound: `C1CN1c1nc(N2CC2)nc(N2CC2)n1`
Marked response: 113 % of control

----------
# System: AKR/Lw mice, AKR lymphoma ip, median survival T/C
# test_description: NCI In Vivo Anticancer Drug Screen. Data for tumor model Lymphoma AKR (Transplanted) (intraperitoneal) in AKR/Lw mice
# settings: endpoint: median survival time; dose: 100.0 mg/kg/injection; schedule: Q01DX009 (ip); vehicle: saline; higher = longer survival
Inconclusive results and toxic doses are left out.
measured_metric: T/C

Here's what some known entries look like.
molecule=S=c1nc[nH]c2nc[nH]c12 measured_metric=T/C result="93 % of control"
molecule=O=C(Nc1cccc(Cl)c1)Oc1ccc2ccccc2c1 measured_metric=T/C result="92 % of control"
molecule="O=P1(N(CCCl)CCCl)NCCCO1 (centres undefined)" measured_metric=T/C result="112 % of control"

Then this molecule:
Exam item: Enter recorded T/C with AKR/Lw mice, AKR lymphoma ip, median survival T/C for `CC(=O)NNC(=O)c1ccccn1` here.
Marked response: 107 % of control

----------
# System: AKR/Lw mice, AKR lymphoma ip, median survival T/C
# test_description: NCI In Vivo Anticancer Drug Screen. Data for tumor model Lymphoma AKR (Transplanted) (intraperitoneal) in AKR/Lw mice
# settings: endpoint: median survival time; dose: 100.0 mg/kg/injection; schedule: Q01DX001 (ip); vehicle: Klucel (hydroxypropylcellulose) (HPC); higher = longer survival
Toxic doses and inconclusive results are not listed.
measured_metric: T/C

compound="CC[CH](C)[Hg][c]1cccc2ccccc12 (stereo unspecified)" result="91 % of control"
compound=COc1ccc(CCNC(=S)NCCc2ccc(OC)c(OC)c2)cc1OC result="88 % of control"
compound="O=C(NC(CSC(c1ccccc1)c1ccccc1)C(=O)O)OCc1ccccc1 (stereo unspecified)" result="95 % of control"
compound=O=C(COc1ccc(Cl)c(Cl)c1)N(Cc1ccccc1)Cc1cccnc1 result="110 % of control"
compound=CC(=O)CC(=O)c1ccccc1 result="106 % of control"
compound="COC(=O)C1(C)CSCCC1=O (stereo unspecified)" result="91 % of control"
compound=Cc1ccc(S(=O)(=O)Nc2ccccc2-c2nc3c(Cl)ccc(Cl)c3c(=O)o2)cc1 result="96 % of control"
compound=C=CCN(CC=C)c1ccc(N(CC)CC)cc1 result="96 % of control"
compound=C#CCn1cnc2c(Cl)ncnc21 result="97 % of control"
compound=NS(=O)(=O)c1ccc(N=Nc2nc3ncnc(SCc4cccs4)c3[nH]2)cc1 result="97 % of control"

Exam item: Report T/C, nothing else, for this compound: `Cc1cnc2c(N)[nH]nc2n1`
Marked response: 106 % of control

Exam item: Report T/C, nothing else, for this compound: `O=C(/C=C/C(=O)Oc1ccc(Cl)cc1)Oc1ccc(Cl)cc1`
Marked response: 92 % of control

Exam item: Report T/C, nothing else, for this compound: S=C1NC(c2ccccc2)NC(c2ccccc2)S1 (stereo unspecified)
Marked response: 92 % of control

Exam item: Report T/C, nothing else, for this compound: C1CC2C(CCCC23OCCO3)C2(C1)OCCO2 (stereo unspecified)
Marked response: 103 % of control

Exam item: Report T/C, nothing else, for this compound: `O=C(/C=C/c1cccc([N+](=O)[O-])c1)NCCBr`
Marked response: 102 % of control

Exam item: Report T/C, nothing else, for this compound: `C/C=C(/C)N(C(C)=O)N(C(C)=O)c1ccc([N+](=O)[O-])cc1[N+](=O)[O-]`
Marked response: 93 % of control

Exam item: Report T/C, nothing else, for this compound: `Cc1cccc(C)c1NC(=S)N(C)C`
Marked response: 92 % of control
